Target: AsPC-1 HiBiT-KRASG12D (Homo sapiens, UniProt P01116, G12D)
Construct: insert the HiBiT tag onto the N-terminus of one or more of the endogenous KRAS alleles; endogenous in cells; host or cells: AsPC-1 (ATCC CRL-1682), CRISPR-Cas9 knock-in clone, one tagged allele
Sequence (P01116 1-188 isoform P01116-2 G12D): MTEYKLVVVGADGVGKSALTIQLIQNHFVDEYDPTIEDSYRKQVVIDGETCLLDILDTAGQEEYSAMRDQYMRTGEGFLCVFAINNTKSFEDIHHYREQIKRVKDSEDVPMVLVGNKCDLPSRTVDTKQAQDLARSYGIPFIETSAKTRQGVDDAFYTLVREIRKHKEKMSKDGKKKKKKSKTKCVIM
Assay: HiBiT degradation assay (G12D), AsPC-1 HiBiT-KRASG12D cells
Assay type: cell-based
Conditions: ASPC1, AsPC-1 HiBiT-KRASG12D cells, 24 hours treatment, maximum degradation observed
Quantity Name: Dmax

CCc1cccc2cc(O)cc(-c3ncc4c(N5CC6CCC(C5)N6)nc(OCCN5CC(CC6CCN(c7cc([C@@H](C(=O)N8C[C@H](O)C[C@H]8C(=O)N[C@@H](C)c8ccc(-c9scnc9C)cc8)C(C)C)on7)CC6)C5)nc4c3F)c12	20 to 60%
C#Cc1c(F)ccc2cc(O)cc(-c3ncc4c(N5CC6CCC(C5)N6)nc(OC[C@@]56CCCN5[C@H](COC(=O)N5CCN(c7cc([C@H](C(=O)N8C[C@H](O)C[C@H]8C(=O)N[C@@H](C)c8ccc(-c9scnc9C)cc8)C(C)C)on7)CC5)CC6)nc4c3F)c12	80 to 100%
CCc1cccc2cc(O)cc(-c3ncc4c(N5CC6CCC(C5)N6)nc(OCCN5CC[C@@H]6CN(c7cc([C@@H](C(=O)N8C[C@H](O)C[C@H]8C(=O)N[C@@H](C)c8ccc(-c9scnc9C)cc8)C(C)C)on7)C[C@@H]6C5)nc4c3F)c12 (relative stereo)	< 20%

// next entry
For the molecule shown here, C#Cc1c(F)ccc2cc(O)cc(-c3ncc4c(N5CC6CCC(C5)N6)nc(OCCN5CCC(CC6CCN(c7cc([C@@H](C(=O)N8C[C@H](O)C[C@H]8C(=O)N[C@@H](C)c8ccc(-c9ccnn9C)cc8)C(C)C)on7)CC6)CC5)nc4c3F)c12 , give the reported Dmax.
20 to 60%

###

Biological target: AsPC-1 HiBiT-KRASG12D (Homo sapiens, UniProt P01116, G12D)
Construct: insert the HiBiT tag onto the N-terminus of one or more of the endogenous KRAS alleles; endogenous in cells; host or cells: AsPC-1 (ATCC CRL-1682), CRISPR-Cas9 knock-in clone, one tagged allele
Experiment: HiBiT degradation assay (G12D), AsPC-1 HiBiT-KRASG12D cells
Type: cell-based
Conditions: ASPC1, AsPC-1 HiBiT-KRASG12D cells, 24 hours treatment, maximum degradation observed
Parameter Dmax: see the listing below.

CCc1cccc2cc(O)cc(-c3ncc4c(N5CC6CCC(C5)N6)nc(OCCN5CCC6(CC5)CN(c5cc([C@@H](C(=O)N7C[C@H](O)C[C@H]7C(=O)N[C@@H](C)c7ccc(-c8scnc8C)cc7)C(C)C)on5)C6)nc4c3F)c12 [Compound 15]	20 to 60%
C#Cc1c(F)ccc2cc(O)cc(-c3ncc4c(N5CC6CCC(C5)N6)nc(OCCN5CCC(C6CCN(c7cc([C@H](C(=O)N8C[C@H](O)C[C@H]8C(=O)N[C@@H](C)c8ccc(-c9scnc9C)cc8)C(C)C)on7)CC6)CC5)nc4c3F)c12 [Compound 176]	80 to 100%
C#Cc1c(F)ccc2cc(O)cc(-c3ncc4c(N5CC6CCC(C5)N6)nc(OCCN5CCC6(CC5)CN(c5cc([C@@H](C(=O)N7C[C@H](O)C[C@H]7C(=O)N[C@@H](C)c7ccc(-c8ccnn8C)cc7)C(C)C)on5)C6)nc4c3F)c12 (relative stereo) [Compound 84]	60 to 80%

Data request, read-out Dmax, for CCc1cccc2cc(O)cc(-c3ncc4c(N5CC6CCC(C5)N6)nc(OCCN5CCC(COc6cc([C@H](C(=O)N7C[C@H](O)C[C@H]7C(=O)N[C@@H](C)c7ccc(-c8scnc8C)cc7)C(C)C)on6)CC5)nc4c3F)c12 [Compound 20]
80 to 100%

###

Measured DC50, listed per entry.
Molecular target: AsPC-1 HiBiT-KRASG12D (Homo sapiens, UniProt P01116, G12D)
Construct: insert the HiBiT tag onto the N-terminus of one or more of the endogenous KRAS alleles; endogenous in cells; host or cells: AsPC-1 (ATCC CRL-1682), CRISPR-Cas9 knock-in clone, one tagged allele
Test: HiBiT degradation assay (G12D), AsPC-1 HiBiT-KRASG12D cells
Format: cell-based
Conditions: AsPC-1 HiBiT-KRASG12D cells, 24 hours treatment, HiBiT luminescence

Any idea what DC50 was measured for Cc1ncsc1-c1ccc([C@H](C)NC(=O)[C@@H]2C[C@@H](O)CN2C(=O)[C@H](c2cc(OC3CN(C(=O)OC[C@@H]4CC[C@@H](COc5nc(N6CC7CCC(C6)N7)c6cnc(-c7cc(O)cc(Cl)c7C7CC7)c(F)c6n5)N4C)C3)no2)C(C)C)cc1 ?
1000 to 3000 nM

Query: DC50; subject: CCc1cccc2cc(O)cc(-c3ncc4c(N5CC6CCC(C5)N6)nc(OCCN5CCC(C(C)(C)N6CCN(c7cc([C@H](C(=O)N8C[C@H](O)C[C@H]8C(=O)N[C@@H](C)c8ccc(-c9scnc9C)cc8)C(C)C)on7)CC6)CC5)nc4c3F)c12 [Compound 186]
< 600 nM

Returns the measured DC50 for the input compound. Input: CCc1cccc2cc(O)cc(-c3ncc4c(N5CC6CCC(C5)N6)nc(OC[C@]56CCCN5[C@H](COC(=O)N5C[C@@H](C)N(c7cc([C@@H](C(=O)N8C[C@H](O)C[C@H]8C(=O)N[C@@H](C)c8ccc(-c9scnc9C)cc8)C(C)C)on7)C[C@@H]5C)CC6)nc4c3F)c12
< 600 nM

Would you mind telling me what DC50 value was observed for CCc1cccc2cc(O)cc(-c3ncc4c(N5CC6CCC(C5)N6)nc(OCCN5CCC(F)(CN6CCN(c7cc([C@H](C(=O)N8C[C@H](O)C[C@H]8C(=O)N[C@@H](C)c8ccc(-c9scnc9C)cc8)C(C)C)on7)[C@@H](C)C6)CC5)nc4c3F)c12 ?
< 600 nM

Given the compound C#Cc1c(F)ccc2cc(O)cc(-c3ncc4c(N5CC6CCC(C5)N6)nc(OC[C@]56CCCN5[C@H](COC(=O)N5CC(Oc7cc([C@H](C(=O)N8C[C@H](O)C[C@H]8C(=O)N[C@@H](C)c8ccc(-c9scnc9C)cc8)C(C)C)on7)C5)CC6)nc4c3F)c12 , what is its reported DC50?
< 600 nM

Query (compound): C#Cc1c(F)ccc2cc(O)cc(-c3ncc4c(N5CC6CCC(C5)N6)nc(OCCN5CCC(CC6CCN(c7cc([C@H](C(=O)N8C[C@H](O)C[C@H]8C(=O)N[C@@H](C)c8ccc(-c9ccnn9C)cc8)C(C)C)on7)CC6)CC5)nc4c3F)c12 ; field requested: DC50
< 600 nM

###

Below, each entry is listed with its recorded DC50.
Biological target: AsPC-1 HiBiT-KRASG12D (Homo sapiens, UniProt P01116, G12D)
Construct: insert the HiBiT tag onto the N-terminus of one or more of the endogenous KRAS alleles; endogenous in cells; host or cells: AsPC-1 (ATCC CRL-1682), CRISPR-Cas9 knock-in clone, one tagged allele
Test: HiBiT degradation assay (G12D), AsPC-1 HiBiT-KRASG12D cells
Format: cell-based
Settings: AsPC-1 HiBiT-KRASG12D cells, 24 hours treatment, HiBiT luminescence

Take a look at these entries with their results.
CCc1cccc2cc(O)cc(-c3ncc4c(N5CC6CCC(C5)N6)nc(OCCN5CCC(CC6CCN(c7cc([C@@H](C(=O)N8C[C@H](O)C[C@H]8C(=O)N[C@@H](C)c8ccc(-c9ccnn9C)cc8)C(C)C)on7)CC6)CC5)nc4c3F)c12	0.6 to 1 µM
CCc1cccc2cc(O)cc(-c3ncc4c(N5CC6CCC(C5)N6)nc(OC[C@@]56CCCN5[C@H](CN5CCC(COc7cc([C@H](C(=O)N8C[C@H](O)C[C@H]8C(=O)N[C@@H](C)c8ccc(-c9scnc9C)cc8)C(C)C)on7)CC5)CC6)nc4c3F)c12	< 0.6 µM
CCc1cccc2cc(O)cc(-c3ncc4c(N5CC6CCC(C5)N6)nc(N5CCC(CN6CCC(CC7CN(c8cc([C@H](C(=O)N9C[C@H](O)C[C@H]9C(=O)N[C@@H](C)c9ccc(-c%10scnc%10C)cc9)C(C)C)on8)C7)CC6)CC5)nc4c3F)c12	> 3 µM

Would you kindly look at the next entry?
Given the entry CCc1cccc2cc(O)cc(-c3ncc4c(N5CC6CCC(C5)N6)nc(OC[C@]56CCCN5[C@@H](COC(=O)N5CCN(c7cc([C@H](C(=O)N8C[C@H](O)C[C@H]8C(=O)N[C@@H](C)c8ccc(-c9scnc9C)cc8)C(C)C)on7)CC5)CC6)nc4c3F)c12 (relative stereo) , report its measured DC50.
< 0.6 µM
